Overview of recorded IC50 for various molecules
Target: Proto-oncogene tyrosine-protein kinase Src (Homo sapiens)
Sequence (P12931 2-536 limits assumed): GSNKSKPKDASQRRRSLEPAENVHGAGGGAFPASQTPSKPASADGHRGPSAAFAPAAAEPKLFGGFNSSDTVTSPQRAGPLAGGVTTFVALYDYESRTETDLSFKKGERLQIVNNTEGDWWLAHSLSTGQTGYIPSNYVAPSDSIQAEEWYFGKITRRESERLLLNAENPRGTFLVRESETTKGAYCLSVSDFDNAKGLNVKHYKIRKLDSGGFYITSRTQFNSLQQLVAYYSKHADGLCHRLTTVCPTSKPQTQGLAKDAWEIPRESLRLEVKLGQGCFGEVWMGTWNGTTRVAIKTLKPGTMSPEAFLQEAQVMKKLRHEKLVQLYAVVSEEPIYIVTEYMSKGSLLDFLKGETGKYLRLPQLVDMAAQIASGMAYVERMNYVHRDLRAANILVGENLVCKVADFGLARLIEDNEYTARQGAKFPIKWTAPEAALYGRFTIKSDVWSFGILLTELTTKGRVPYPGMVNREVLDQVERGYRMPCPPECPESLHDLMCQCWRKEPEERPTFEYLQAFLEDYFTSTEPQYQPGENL

{"Compound Structure String": "Cc1ccc(C(=O)Nc2cccc(C(F)(F)F)c2)cc1Nc1ncccc1-c1ccncn1", "Rel": "<", "IC50, µM": 0.025}
{"Compound Structure String": "CNc1ncnc(-c2cccnc2Oc2ccc(F)c(C(=O)Nc3cc(C(F)(F)F)ccc3N(C)CCCN(C)C)c2)n1", "Rel": "=", "IC50, µM": 5.75}

----------
Molecular target: Mitogen-activated protein kinase 14 (Homo sapiens)
Sequence (Q16539 whole entry): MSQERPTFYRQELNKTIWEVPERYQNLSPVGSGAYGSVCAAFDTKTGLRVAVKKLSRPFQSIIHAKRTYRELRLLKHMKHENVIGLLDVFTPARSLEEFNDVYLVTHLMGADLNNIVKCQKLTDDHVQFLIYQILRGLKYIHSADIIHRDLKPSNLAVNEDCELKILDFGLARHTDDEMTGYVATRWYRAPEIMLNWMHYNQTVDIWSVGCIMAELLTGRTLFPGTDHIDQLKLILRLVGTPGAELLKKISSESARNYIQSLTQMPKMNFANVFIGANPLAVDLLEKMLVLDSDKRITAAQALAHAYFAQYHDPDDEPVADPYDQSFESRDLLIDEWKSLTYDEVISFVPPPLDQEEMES
Assay: Inhibition of p38alpha
pIC50: −log10 of the molar value.

{"Compound Structure String": "Cc1ccc(C(=O)Nc2cccc(C(F)(F)F)c2)cc1Nc1ncccc1-c1ccncn1", "Tgt": "Mitogen-activated protein kinase 14 (Homo sapiens)", "Rel": ">", "pIC50": 7.60}
{"Compound Structure String": "CNc1ncnc(-c2cccnc2Oc2ccc(F)c(C(=O)Nc3cc(C(F)(F)F)ccc3N(C)CCCN(C)C)c2)n1", "Tgt": "Mitogen-activated protein kinase 14 (Homo sapiens)", "Rel": "=", "pIC50": 5.43}

Hello, the source for this data is ChEMBL document CHEMBL1141380, in case you need it.
